Each entry below carries its recorded microsomal CLint at 1 uM.
Assay: Metabolic stability in human hepatic microsome
Format: in vitro ADME
Details: microsomes, pH 7.4; human hepatic microsome, NADPH(+); read-out: CL NADPH(+)
Starred links: 1 amine or outer side, 2 acyl side, 3 side chain; linkers in the order of their positions; H or OH if unused. Positions of bridges follow the written chain, without caps; N, C: chain ends. Non-standard residues stand in square brackets, D forms with d. Residues, ends and D or L forms follow the SMILES beside them. *: point of attachment. Phe(4-(CH2)5CO) = O=C([C@H](Cc1ccc(CCCCCC(=O)[*:3])cc1)N[*:1])[*:2]; NMeF = CN[C@@H](Cc1ccccc1)C(=O)O; NMeGABA = CN(CCCC(=O)[*:2])[*:1]; NMeI = CC[C@H](C)[C@H](NC)C(=O)O; NMeL = CN[C@@H](CC(C)C)C(=O)O; NMeV = CN[C@H](C(=O)O)C(C)C; Pip = O=C(O)[C@@H]1CCCCN1; NMeA = CN[C@@H](C)C(=O)O; Piperidide = C1CCN(*)CC1; dNMeA = CN[C@H](C)C(=O)O; Sar = CNCC(=O)O; tBu = CC(C)(C)*
The reply should contain only the number, in µL/min/mg.

Solved entries (count: 6):
{"compound": "CC[C@H](C)[C@H]1C(=O)N[C@@H](COC(C)(C)C)C(=O)N(C)[C@@H](Cc2ccccc2)C(=O)N(C)[C@@H](C(C)C)C(=O)N[C@H](C(=O)N2CCCCC2)Cc2ccc(cc2)CCCCCC(=O)N(C)[C@@H](Cc2ccccc2)C(=O)N[C@@H](CC(C)C)C(=O)N(C)[C@@H](CC(C)C)C(=O)N[C@@H]([C@@H](C)O)C(=O)N(C)CC(=O)N1C [DP-852] ([NMeF]L[NMeL]T[Sar][NMeI]S(tBu)[NMeF][NMeV][Phe(4-(CH2)5CO)]-Piperidide; lactam N-10)", "unit-abbrev": "µL/min/mg", "quantitative-result": 484}
{"compound": "CC[C@H](C)[C@@H]1NC(=O)[C@H](C)N(C)C(=O)[C@H]([C@@H](C)O)NC(=O)[C@H](C(C)C)N(C)C(=O)[C@H](CC(C)C)NC(=O)[C@H](CC(C)C)N(C)C(=O)[C@@H](C)N(C)C(=O)C[C@@H](C(=O)N2CCCCC2)NC(=O)[C@H](Cc2ccccc2)NC(=O)[C@H](C)NC(=O)[C@H](Cc2ccccc2)N(C)C1=O [DP-242] ([dNMeA][NMeL]L[NMeV]T[NMeA]I[NMeF]AFD-Piperidide; lactam N-11)", "unit-abbrev": "µL/min/mg", "quantitative-result": 43}
{"compound": "CC[C@H](C)[C@H]1C(=O)N[C@H](C(=O)N2CCCCC2)CC(=O)N[C@H](C(C)C)C(=O)N[C@@H]([C@@H](C)O)C(=O)N(C)[C@@H](C)C(=O)N(C)[C@@H](C(C)C)C(=O)N[C@@H](Cc2ccccc2)C(=O)N(C)[C@@H](CC(C)C)C(=O)N[C@@H](C)C(=O)N(C)CC(=O)N1C [DP-253] ([dV]T[NMeA][NMeV]F[NMeL]A[Sar][NMeI]D-Piperidide; lactam N-10)", "unit-abbrev": "µL/min/mg", "quantitative-result": 42}
{"compound": "CC(C)C[C@H]1C(=O)N[C@@H]([C@@H](C)O)C(=O)N[C@H](C(=O)N(C)[C@@H](Cc2ccccc2)C(=O)N(C)[C@@H](Cc2ccccc2)C(=O)N[C@@H](C)C(=O)N2CCCCC2)CC(=O)N(C)[C@@H](C)C(=O)N(C)CC(=O)N(C)[C@@H](Cc2ccccc2)C(=O)N(C)[C@@H](C)C(=O)N[C@@H](C)C(=O)N(C)[C@@H](C)C(=O)N1C [DP-406] ([NMeA][Sar][NMeF][NMeA]A[NMeA][NMeL]TD[NMeF][NMeF]A-Piperidide; lactam N-9)", "unit-abbrev": "µL/min/mg", "quantitative-result": 11}
{"compound": "CC(C)C[C@H]1C(=O)N[C@@H]([C@@H](C)O)C(=O)N(C)[C@@H](C)C(=O)N(C)[C@@H](CC(C)C)C(=O)N[C@H](C(=O)N2CCCCC2)CC(=O)N(C)CCCC(=O)N[C@@H](C)C(=O)N(C)[C@@H](Cc2ccccc2)C(=O)N[C@@H](Cc2ccccc2)C(=O)N1C [DP-128] ([NMeGABA]A[NMeF]F[NMeL]T[NMeA][NMeL]D-Piperidide; lactam N-9)", "unit-abbrev": "µL/min/mg", "quantitative-result": 276}
{"compound": "CC[C@H](C)[C@H]1C(=O)NCC(=O)N(C)[C@@H](CC(C)C)C(=O)N[C@@H]([C@@H](C)O)C(=O)N2CCCC[C@H]2C(=O)N[C@@H](Cc2ccccc2)C(=O)N[C@H](C(=O)N2CCCCC2)CC(=O)N(C)[C@@H](C)C(=O)N[C@@H](Cc2ccccc2)C(=O)N(C)[C@@H](CC(C)C)C(=O)N[C@@H](CC(C)C)C(=O)N1C [DP-559] ([NMeA]F[NMeL]L[NMeI]G[NMeL]T[Pip]FD-Piperidide; lactam N-11)", "unit-abbrev": "µL/min/mg", "quantitative-result": 145}

Field microsomal CLint at 1 uM (entry CC(C)C[C@@H]1NC(=O)[C@H](CC(C)C)N(C)C(=O)[C@H]([C@@H](C)O)NC(=O)[C@H](Cc2ccccc2)N(C)C(=O)C[C@@H](C(=O)N2CCCCC2)NC(=O)[C@H](CC(C)C)N(C)C(=O)[C@H](Cc2c[nH]cn2)NC(=O)[C@H](Cc2ccccc2)N(C)C(=O)[C@H](Cc2ccccc2)N(C)C1=O [DP-905] ([NMeF]T[NMeL]L[NMeF][NMeF]H[NMeL]D-Piperidide; lactam N-9) ) reads 73
